target: T1, P. vivax Reticulocyte Binding Protein 2b, residues 161–1454 (P. vivax strain Salvador I, UniProt A5K736, DyLight 488 (NHS ester) in the FRET assay; biotin (BirA site) in the competition ELISA between human mAbs)
T1 construct: PvRBP2b, P. vivax strain Salvador I, PlasmoDB PVX_094255 (total length 2806 amino acids), residues 161-1454; also called PvRBP2b_(161–1454); PvRBP2b; source: recombinant; expressed and purified in a similar manner as PvRBP2b161–470 (E. coli SHuffle T7; HisTrap, Q-Sepharose, size exclusion) or as previously described
assay-summary: FRET or BRET; PvRBP2b161–1454-DL488, TfR1-DL594 and Tf at 1:1:1 molar ratio, 5-fold excess of human mAbs; 50 mM Tris-HCl pH 6.8, 150 mM NaCl, 0.01% BSA
recorded-conditions: both partners purified
Form field: percent decrease in FRET signal of PvRBP2b161–1454 with TfR1–Tf (one value per entry).

Examples with answers:
PvRBP2b human mAb 258259 (antibody, V domains shown, variable region as the Fab heavy chain in PDB 6WTV; cloned into a human IgG1 backbone, full-length antibody; lambda light chain; as the Fab light chain in PDB 6WTV; IgG1; same clonal group as 273264; source: Expi293 HEK cells, transfected, purified (Protein A, gel filtration)) VH: EVQLLESGGGLVRPGGSQRLSCAASGFTFTPYAMTWVRQAPGKGLEWLSTISGSGGSTYYADSVKGRFTISRDNSKNMLYLQMNSLTAEDTALYYCTKDKDEYTFGHNAFDVWGQGTMVTVSS VL: SYELTQAPSVSVAPGQTARITCGGDNIGRKTVNWYQQKPGQAPVLVIYYDNDRPSGIPERFSGSNSGNMATLSISRVEVGDEADYYCQVWDSNNDHPVFGGGTKLTVV: > 70%
PvRBP2b human mAb 241242 (antibody, V domains shown, variable region as the Fab heavy chain in PDB 6WN1; cloned into a human IgG1 backbone, full-length antibody; lambda light chain; as the Fab light chain in PDB 6WN1; IgG1; also called 241424 [sic]; source: Expi293 HEK cells, transfected, purified (Protein A, gel filtration)) VH: EVQLLESGGGLVQPGGSLRLSCAVSGFTFRNYALSWVRQAPGKGLDWVSTISASGGATYYADSVKGHFTISRDNSKNILYLDMKSLRAEDTAIYYCARDGGSYTPYFFLDSWGQGALVTVSS VL: SYELTQPASVSVAPGQTAQITCGGNSIGRKSIHWYQHKPGQAPVLVISYDSDRPSGIPERFSGSNSGNTATLTISKVEAGDEADFYCQVRDSDNDHVVFGGGTKLTVL: > 70%
PvRBP2b human mAb 273264 (antibody, V domains shown, variable region as the Fab heavy chain in PDB 6WTU; cloned into a human IgG1 backbone, full-length antibody; lambda light chain; as the Fab light chain in PDB 6WTU; IgG1; same clonal group as 258259; source: Expi293 HEK cells, transfected, purified (Protein A, gel filtration)) VH: EVQLLESGGGLVRPGGSQRLSCAASGFTFTPYAMTWVRQAPGKGLEWLSTISGSGGSTSYADSVKGRFTISRDNSKNILYLQMDSLRAEDTALYYCTKDKDEYTFGHNAFDVWGRGTMVTVSS VL: SYELTQAPSVSVAPGQTARITCGGDNIGRTSVHWYQQKPGQAPVLVIFYDNDRPSGIPERFSGSNSGNMATLSISRVEVGDEADYYCQVWDSNNDHPVFGGGTKLTVV: > 70%

Consider the binder PvRBP2b human mAb 253245 (antibody, V domains shown, variable region as the Fab heavy chain in PDB 6WTY; cloned into a human IgG1 backbone, full-length antibody; lambda light chain; as the Fab light chain in PDB 6WTY; IgG1; source: Expi293 HEK cells, transfected, purified (Protein A, gel filtration)) VH: EVQLVQSGAEVKKPGSSMKVSCKASGGTFNRYVFSWVRQAPGQGLEWMGGILPILETTYYAKNFKGRVTITADESTSTVYMELSSLTSEDTAVYFCARDEHDYVWGSYRPSLTGPWGQGTLVTVSS VL: QSALTQPPSTSGSPGQSVTISCTGTGIDVGGFSYVSWFQYHPGKAPKLIIFEVTKRPSGVPDRFSGSKSGNTASLTISGLQADDEAEYYCSSYAVNNNFVFGTGTKVTVL . State its measured percent decrease in FRET signal of PvRBP2b161–1454 with TfR1–Tf.
> 70%

Data origin, for the record: paper PMC7943553
